The reported numbers originate from paper PMC4336329.

molecular target: human ether-à-go-go-related gene (hERG) potassium channel (human, UniProt Q12809); test: primary screen, population patch clamp on CHO cells stably expressing hERG; higher = less effect of the substance;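 further: peak tail current of the secondary pulse compared with the same well before compound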
Sequence (Q12809 whole entry, looked up): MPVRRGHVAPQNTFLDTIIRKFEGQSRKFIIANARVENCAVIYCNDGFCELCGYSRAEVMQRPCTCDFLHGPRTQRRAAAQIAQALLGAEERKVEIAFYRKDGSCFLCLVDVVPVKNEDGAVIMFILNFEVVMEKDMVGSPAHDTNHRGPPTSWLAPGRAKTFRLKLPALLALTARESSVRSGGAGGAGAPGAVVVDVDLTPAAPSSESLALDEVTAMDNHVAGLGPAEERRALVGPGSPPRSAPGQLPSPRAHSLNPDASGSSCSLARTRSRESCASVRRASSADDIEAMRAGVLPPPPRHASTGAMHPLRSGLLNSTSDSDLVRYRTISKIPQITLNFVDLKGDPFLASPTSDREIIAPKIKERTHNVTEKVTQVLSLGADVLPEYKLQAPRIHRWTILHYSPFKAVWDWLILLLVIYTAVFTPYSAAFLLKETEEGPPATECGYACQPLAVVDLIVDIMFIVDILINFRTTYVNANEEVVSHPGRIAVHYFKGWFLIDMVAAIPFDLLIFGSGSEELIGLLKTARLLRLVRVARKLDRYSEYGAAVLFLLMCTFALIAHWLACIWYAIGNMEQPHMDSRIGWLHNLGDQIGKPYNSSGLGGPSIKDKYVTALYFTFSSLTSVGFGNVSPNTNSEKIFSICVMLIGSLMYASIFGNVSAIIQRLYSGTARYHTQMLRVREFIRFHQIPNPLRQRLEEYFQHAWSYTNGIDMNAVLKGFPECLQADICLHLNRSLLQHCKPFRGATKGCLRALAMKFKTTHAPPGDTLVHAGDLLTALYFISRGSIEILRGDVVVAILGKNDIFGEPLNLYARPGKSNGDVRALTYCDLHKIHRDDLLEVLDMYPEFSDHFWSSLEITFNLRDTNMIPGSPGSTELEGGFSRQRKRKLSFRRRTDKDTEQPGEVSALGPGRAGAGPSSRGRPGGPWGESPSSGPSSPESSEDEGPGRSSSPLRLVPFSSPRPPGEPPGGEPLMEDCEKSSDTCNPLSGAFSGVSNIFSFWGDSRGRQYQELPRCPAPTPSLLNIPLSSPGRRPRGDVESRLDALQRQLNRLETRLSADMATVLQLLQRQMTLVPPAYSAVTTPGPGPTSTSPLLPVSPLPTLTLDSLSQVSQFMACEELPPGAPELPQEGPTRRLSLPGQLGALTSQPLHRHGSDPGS
The whole screen tested about 310,000 compounds, of which about 14,000 (4.5%) showed an effect of 50% or more. The effect is printed as a negative number. The sample as a whole holds a higher share of strong results than the screen did.
assayMetric: hERG current change (%, negative = inhibition) at 10uM

{"molecule": "NC(=O)C1CCN(C(=O)C2CC(=O)N(c3ccc(F)cc3)C2)CC1 (centres unmarked)", "targetEntity": "human ether-à-go-go-related gene (hERG) potassium channel (human, UniProt Q12809)", "experimentalValue": "13.7%"}
{"molecule": "Cc1ccc(N2CC(C(=O)N3CCC4(CC3)CC(=O)c3ccccc3O4)CC2=O)cc1C (centres unmarked)", "targetEntity": "human ether-à-go-go-related gene (hERG) potassium channel (human, UniProt Q12809)", "experimentalValue": "-71.3%"}
{"molecule": "CCOC(=O)Cc1csc(NS(=O)(=O)Cc2ccccc2)n1", "targetEntity": "human ether-à-go-go-related gene (hERG) potassium channel (human, UniProt Q12809)", "experimentalValue": "3.54%"}
{"molecule": "Cc1ccc(N2CC(C(=O)N3CCC4(CC3)CC(=O)c3ccccc3O4)CC2=O)cc1 (centres unmarked)", "targetEntity": "human ether-à-go-go-related gene (hERG) potassium channel (human, UniProt Q12809)", "experimentalValue": "-71.6%"}
{"molecule": "COC(=O)[C@@]1(Cc2ccc(F)cc2)[C@H]2c3cc(C(=O)N(C)C)n(CCc4ccc(OC)c(Br)c4)c3C[C@H]2CN1C(=O)c1ccccc1", "targetEntity": "human ether-à-go-go-related gene (hERG) potassium channel (human, UniProt Q12809)", "experimentalValue": "-2.99%"}
{"molecule": "O=S(=O)(c1ccc(OCC(O)CN2CCN(c3ccccc3O)CC2)cc1)N1CCOCC1 (centres unmarked)", "targetEntity": "human ether-à-go-go-related gene (hERG) potassium channel (human, UniProt Q12809)", "experimentalValue": "-6.91%"}
{"molecule": "CCOC(=O)N1CCN(C(=O)C2CC(=O)N(c3ccccc3)C2)CC1 (centres unmarked)", "targetEntity": "human ether-à-go-go-related gene (hERG) potassium channel (human, UniProt Q12809)", "experimentalValue": "5.31%"}
{"molecule": "COc1ccc(C(=O)N2CCC(n3c(C)nc4cc(F)ccc43)CC2)cc1OC", "targetEntity": "human ether-à-go-go-related gene (hERG) potassium channel (human, UniProt Q12809)", "experimentalValue": "-69%"}
{"molecule": "CC(C(=O)N1CCN(c2ccccc2F)CC1)c1ccc([N+](=O)[O-])cc1 (centres unmarked)", "targetEntity": "human ether-à-go-go-related gene (hERG) potassium channel (human, UniProt Q12809)", "experimentalValue": "-68.4%"}
{"molecule": "CN(C)CCCNc1ccc(-c2nn(C)c(=O)c3ccccc23)cc1[N+](=O)[O-]", "targetEntity": "human ether-à-go-go-related gene (hERG) potassium channel (human, UniProt Q12809)", "experimentalValue": "-16%"}
{"molecule": "CC(C)(C)NC(=S)NC(=O)C12CCC3CC(CC(C3)C1)C2", "targetEntity": "human ether-à-go-go-related gene (hERG) potassium channel (human, UniProt Q12809)", "experimentalValue": "6.45%"}
{"molecule": "O=C(c1ccco1)N1CCN(C2CC(=O)N(c3ccc4c(c3)OCO4)C2=O)CC1 (centres unmarked)", "targetEntity": "human ether-à-go-go-related gene (hERG) potassium channel (human, UniProt Q12809)", "experimentalValue": "-16.8%"}
{"molecule": "Cl.OC(COc1ccc(F)cc1)CN1CCN(c2ccccc2F)CC1 (centres unmarked)", "targetEntity": "human ether-à-go-go-related gene (hERG) potassium channel (human, UniProt Q12809)", "experimentalValue": "-66.6%"}
{"molecule": "Cc1ccc(N2CC(C(=O)N3CCCCCC3)CC2=O)cc1 (centres unmarked)", "targetEntity": "human ether-à-go-go-related gene (hERG) potassium channel (human, UniProt Q12809)", "experimentalValue": "11.5%"}
{"molecule": "Cc1ccc(C(=O)NNC(=O)C2CCN(c3nc(C)cc(C)n3)CC2)cc1", "targetEntity": "human ether-à-go-go-related gene (hERG) potassium channel (human, UniProt Q12809)", "experimentalValue": "4.83%"}
{"molecule": "CCCCn1c(N)c(N(CC(C)C)C(=O)C2CC(=O)N(CCc3ccccc3)C2)c(=O)[nH]c1=O (centres unmarked)", "targetEntity": "human ether-à-go-go-related gene (hERG) potassium channel (human, UniProt Q12809)", "experimentalValue": "7.09%"}
{"molecule": "O=C(Nc1nnc(-c2ccncc2)s1)Nc1ccccc1F", "targetEntity": "human ether-à-go-go-related gene (hERG) potassium channel (human, UniProt Q12809)", "experimentalValue": "14.2%"}
{"molecule": "O=C(c1ccc(F)cc1)N1CCC(n2nnc3ccccc32)CC1", "targetEntity": "human ether-à-go-go-related gene (hERG) potassium channel (human, UniProt Q12809)", "experimentalValue": "-33.3%"}
{"molecule": "Cc1cc(C)cc(NC(=O)CSc2nc3c(c(=O)n2C)SC(C)C3)c1 (centres unmarked)", "targetEntity": "human ether-à-go-go-related gene (hERG) potassium channel (human, UniProt Q12809)", "experimentalValue": "3.64%"}
{"molecule": "O=C(c1ccc([N+](=O)[O-])cc1)N1CCC(n2nnc3cc(F)ccc32)CC1", "targetEntity": "human ether-à-go-go-related gene (hERG) potassium channel (human, UniProt Q12809)", "experimentalValue": "-71.9%"}

---

Item-by-item account of hERG current change (%, negative = inhibition) at 10uM
biological target: human ether-à-go-go-related gene (hERG) potassium channel (human, UniProt Q12809); test: primary screen, population patch clamp on CHO cells stably expressing hERG; higher = less effect of the substance;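 further: peak tail current of the secondary pulse compared with the same well before compound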
Hit rate of the full screen: of about 310,000 compounds, about 14,000 (4.5%) showed an effect of 50% or more. Effects have a minus sign here. The entries come from a sample that favours strong results as a whole.
assayMetric: hERG current change (%, negative = inhibition) at 10uM (%)

{"compound": "COc1cc(Cl)c(C)cc1NC(=O)CN1CCCCCC1", "experimentalValue": -0.067}
{"compound": "O=C(CCC(=O)c1cccs1)OCC(=O)N1CCN(C(=O)c2ccco2)CC1", "experimentalValue": -2.34}
{"compound": "COc1cc(OC)c(NC(=O)CCCn2c(=O)oc3ccccc32)cc1Cl", "experimentalValue": 9.61}
{"compound": "CN1CCN(c2nc(N3CCN(CCO)CC3)nc3ccccc23)CC1.Cl", "experimentalValue": 7.33}
{"compound": "O=C(CCN1c2ccccc2Sc2ccccc21)OCC(=O)N1CCN(C(=O)c2ccco2)CC1", "experimentalValue": -66}
{"compound": "CCN(CC)c1nc(N2CCN(CCO)CC2)nc2ccccc12.Cl", "experimentalValue": -27.8}
{"compound": "O=C(OCC(=O)N1CCOCC1)c1cccc(S(=O)(=O)N2CCCc3ccccc32)c1", "experimentalValue": -24.9}
{"compound": "O=C(Cc1ccccc1F)OCC(=O)N1CCN(C(=O)c2ccco2)CC1", "experimentalValue": -22.6}
{"compound": "COc1cc(NC(=O)CN2CCN(C(=O)C3CCCO3)CC2)c(OC)cc1Cl (stereo not drawn)", "experimentalValue": -12.5}
{"compound": "c1ccc2c(Nc3ccc(N4CCOCC4)cc3)nc(N3CCOCC3)nc2c1", "experimentalValue": -48.5}
{"compound": "N#Cc1ccc(COC(=O)c2ccc3c(c2)OCO3)cc1", "experimentalValue": -27.4}
{"compound": "CC(C)(C)NC(=O)Cn1nnc(-c2ccc(Cl)cc2)n1", "experimentalValue": 2.32}
{"compound": "O=C(O)C1CC(=O)N(c2ccc(F)c(F)c2)C1 (stereo not drawn)", "experimentalValue": 13}
{"compound": "CN(c1ccccc1)S(=O)(=O)c1cc(C(=O)OCC(N)=O)ccc1Cl", "experimentalValue": -4.09}
{"compound": "O=C(CSc1ccccc1)OCC(=O)N1CCN(C(=O)c2ccco2)CC1", "experimentalValue": -27}
{"compound": "COc1ccc(NC(=O)CCCn2c(=O)oc3ccccc32)cc1Cl", "experimentalValue": -12.9}
{"compound": "NS(=O)(=O)c1ccc(NC(=O)CN2CCCc3ccccc32)cc1", "experimentalValue": -5.73}
{"compound": "COc1cc(Cl)c(C)cc1NC(=O)c1ccccc1NC(=O)CN1CCOCC1", "experimentalValue": -58.7}
{"compound": "CCOC(=O)Cc1csc(NC(=S)NC(=O)c2ccc([N+](=O)[O-])cc2)n1", "experimentalValue": 13.8}
{"compound": "Cc1cc2cc(CNC(=O)Cc3ccc([N+](=O)[O-])cc3)ccc2[nH]1", "experimentalValue": -50.7}
{"compound": "CCC(=O)NCc1ccc2[nH]c(C)cc2c1", "experimentalValue": 37}
